The reported measurements were obtained from ChEMBL document CHEMBL4251620.

Assignment: determine reported viability at 1 µM for the given compounds.
Test system: U-937
test.summary: Cytotoxicity activity against human U937 cells assessed as cell viability at 1 uM after 48 hrs by CCK-8 assay
Assay type: functional
assay.conditions: U-937, 48 h, read-out: Activity

Problem: Look up viability at 1 µM: "Cc1c(C(=O)/C=C/c2ccc3c(c2)OCO3)cc2cccn2c1C(=O)c1ccccc1"
Solution: > 80%

Problem: Look up viability at 1 µM: "Cc1c(C(=O)/C=C/c2cccc(Cl)c2)cc2cccn2c1C(=O)c1ccccc1"
Solution: < 80%

Problem: Look up viability at 1 µM: "COc1ccc(/C=C/C(=O)c2cc3cccn3c(C(=O)c3ccccc3)c2C)cc1"
Solution: > 80%

----------
Assignment: determine reported Activity for the given compounds.
Test system: U-937
test.summary: Induction of apoptosis in human U937 cells assessed as early apoptotic cells at 10 uM after 48 hrs by muse Annexin V/dead cell reagent staining-based flow cytometric analysis (reference value: 1.87%)
Assay type: functional
The figure you give is taken to be in %; do not add the unit.

Problem: Provide value of Activity for this record tested with U-937: "COc1cc(/C=C/C(=O)c2cc3cccn3c(C(=O)c3ccccc3)c2C)cc(OC)c1"
Solution: 8.22

Problem: Provide value of Activity for this record tested with U-937: "Cc1c(C(=O)/C=C/c2ccc(Br)cc2)cc2cccn2c1C(=O)c1ccccc1"
Solution: 14.54

Problem: Provide value of Activity for this record tested with U-937: "Cc1c(C(=O)/C=C/c2ccc([N+](=O)[O-])cc2)cc2cccn2c1C(=O)c1ccccc1"
Solution: 16.34

Problem: Provide value of Activity for this record tested with U-937: "Cc1c(C(=O)/C=C/c2ccncc2)cc2cccn2c1C(=O)c1ccccc1"
Solution: 6.21

Problem: Provide value of Activity for this record tested with U-937: "Cc1c(C(=O)/C=C/c2cccc(Cl)c2)cc2cccn2c1C(=O)c1ccccc1"
Solution: 5.94

----------
Tested on: U-937
test.summary: Induction of apoptosis in human U937 cells assessed as viable cells at 3 uM after 48 hrs by muse Annexin V/dead cell reagent staining-based flow cytometric analysis (reference value: 97.07%)
Type: functional
assay.conditions: U-937, 48 h, read-out: Activity
Field: label. Allowed values: t (viability at 3 µM < 20%) or f (viability at 3 µM >= 20%).

Problem: Below 20% on viability at 3 µM? Entry "Cc1c(C(=O)/C=C/c2cccc(Cl)c2)cc2cccn2c1C(=O)c1ccccc1"
Solution: t

Problem: Below 20% on viability at 3 µM? Entry "Cc1c(C(=O)/C=C/c2ccc(Br)cc2)cc2cccn2c1C(=O)c1ccccc1"
Solution: f

Problem: Below 20% on viability at 3 µM? Entry "Cc1c(C(=O)/C=C/c2ccc([N+](=O)[O-])cc2)cc2cccn2c1C(=O)c1ccccc1"
Solution: f

Problem: Below 20% on viability at 3 µM? Entry "COc1cc(/C=C/C(=O)c2cc3cccn3c(C(=O)c3ccccc3)c2C)cc(OC)c1"
Solution: t

Problem: Below 20% on viability at 3 µM? Entry "Cc1c(C(=O)/C=C/c2ccncc2)cc2cccn2c1C(=O)c1ccccc1"
Solution: f
